experiment: solvent given as SMILES; conditions: in CCOC(C)=O
readout.type: fluorescence lifetime (ns)
Numbers only, in ns.

{"columns": ["compound", "output.unit", "fluorescence lifetime"],
 "data": [
  ["CN(CC(O)c1cccc(O)c1)c1ccc([N+](=O)[O-])c(C2CC(c3cccc4ccccc34)=NN2c2ccccc2)c1 (stereo not given)", "ns", 4.01],
  ["C#CCNC1=C2C(C)=CC(C)=[N+]2[B-](F)(F)n2c(C)cc(C)c21", "ns", 0.78],
  ["Cc1cccc(Nc2ccccc2C(=O)O)c1C", "ns", 2.46],
  ["CN1C(=CC=Cc2nc3nc4ccccc4nc3s2)C(C)(C)c2ccccc21", "ns", 0.92],
  ["COc1ccc(/C=C/C2=CC(/C=C/c3ccc(OC)cc3)=[O+][B-](F)(F)O2)cc1", "ns", 0.88],
  ["CCC1=C(C)C2=C(C)c3cc(I)c(I)n3[B-](F)(F)[N+]2=C1C", "ns", 0.893],
  ["CC1=C(C(C)(C)C)C(C)=[N+]2C1=C(C)c1c(C)c(C(C)(C)C)c(C)n1[B-]2(F)F", "ns", 4.31],
  ["CCN(CC)c1ccc2cc(/C=C/C(=C(C#N)C#N)c3ccc(N(c4ccccc4)c4ccccc4)cc3)c(=O)oc2c1", "ns", 1.31]
]}

Provide the reported fluorescence lifetime of each entry below, same order.
1. CC(=O)c1nc(-c2ccc(N(C)C)cc2)oc1C
2. CCOc1cc2c(cc1/C=C/C1=CC(=C(C#N)C#N)CC(C)(C)C1)c1ccccc1n2CC
3. CC1=CC(C)=[N+]2C1=Cc1c3ccccc3c(C#Cc3ccsc3)n1[B-]2(F)F
4. COc1cc2c(cc1/C=C/C1=CC(=C(C#N)C#N)CC(C)(C)C1)c1ccccc1n2C
5. Cc1ccc(C2=C3C=CC=[N+]3[B-](F)(F)n3cccc32)cc1

1. 1.87
2. 7.08
3. 5.21
4. 6.38
5. 0.237

====

Task for the reader: assign each of the following molecules its reported fluorescence lifetime.
assay: solvent given as SMILES; details: in CCO
One number for each entry, in ns.

The cases that follow already have their fluorescence lifetime on record.
{"columns": ["query.smiles", "output.unit", "fluorescence lifetime"],
 "data": [
  ["COc1ccc2cc3c(C)cc(=O)oc3cc2c1", "ns", 4.2],
  ["CCNc1ccc2c(C(F)(F)F)cc(=O)oc2c1", "ns", 5.04],
  ["CC1(C)C(/C=C/C2=C(c3ccc(C(=O)O)cc3)C(=C/C=C3/N(CCCCS(=O)(=O)[O-])c4ccc(S(=O)(=O)[O-])cc4C3(C)C)/CCC2)=[N+](CCCCS(=O)(=O)[O-])c2ccc(S(=O)(=O)[O-])cc21", "ns", 1],
  ["COc1cc2c(cc1/C=C/C(=C(C#N)C#N)c1ccccc1)c1ccccc1n2C", "ns", 5.52],
  ["CCN1\\C(=C/C=C/C=C/C2=[N+](CC)c3ccc4ccccc4c3C2(C)C)C(C)(C)c2c1ccc1ccccc21", "ns", 0.93],
  ["COc1cc2c(cc1/C=C/C1=CC(=C(C#N)C#N)CC(C)(C)C1)c1ccccc1n2C", "ns", 7.78],
  ["O=C([O-])c1ccccc1-c1c2ccc(=O)cc-2oc2cc([O-])ccc12", "ns", 4.25],
  ["COc1cc(OC)cc(-c2ccc(-c3ccc(C#N)s3)s2)c1", "ns", 0.24]
]}

Below: the item to evaluate.
The molecule identified as CCC1=C(C)C2=Cc3c(I)c(I)c(I)n3[B-](F)(F)[N+]2=C1C registered its fluorescence lifetime at 0.244
